Data provenance is the METLIN SMRT retention time set (Domingo-Almenara et al. 2019).

assay: gradient 5% acetonitrile 3 min, to 50% in 2 min, to 85% in 15 min, held 3 min, 100 µL/min; settings: column: Zorbax Extend-C18 2.1 x 50 mm; eluents: water / acetonitrile, 0.1% formic acid
observation.type: RP-LC retention time (s)

[
  {
    "compound": "Cc1nc2ccn(Cc3cccs3)c(=O)c2cc1C(=O)NC1CCCC1",
    "RP-LC retention time [s]": 736
  },
  {
    "compound": "O=C1CN(S(=O)(=O)c2ccccc2F)CC2(CCCCC2)N1C1CCCC1",
    "RP-LC retention time [s]": 1140
  },
  {
    "compound": "CCn1c(=O)c(N2CCN(C(=O)Nc3cccc(Br)c3)CC2)nc2ccccc21",
    "RP-LC retention time [s]": 1030
  },
  {
    "compound": "COc1cc(-c2nc3ncccn3c2Nc2ccc(C)c(Cl)c2)ccc1O",
    "RP-LC retention time [s]": 704
  },
  {
    "compound": "CS(=O)(=O)N1CCC(C(=O)N2CCCC(c3nnc(-c4cccs4)o3)C2)CC1 (centres undefined)",
    "RP-LC retention time [s]": 642
  },
  {
    "compound": "O=C(Nc1ccccc1Cl)N1CCC(N2CCN(Cc3ccc(F)cc3)C(=O)C2=O)CC1",
    "RP-LC retention time [s]": 776
  },
  {
    "compound": "CCOC1CCN(C(=O)NC2CCCC2)CC1",
    "RP-LC retention time [s]": 698
  },
  {
    "compound": "CCOc1cccc(-c2noc(Cn3ccn(-c4ccccc4OC)c(=O)c3=O)n2)c1",
    "RP-LC retention time [s]": 863
  }
]

I = Cc1ccc(-n2nnc(-c3noc(C)n3)c2C)cc1
II = Cc1cccc(-c2noc(C3CCCN3S(=O)(=O)c3ccc(C(C)C)cc3)n2)c1 (centres undefined)
Lookup: Two entries are listed, I and II . Which one carries the higher RP-LC retention time? State your choice using its label.
Found: II

P = CCn1cc(C(=O)NCCCOC(C)C)c(S(=O)(=O)N2CCN(c3cccc(Cl)c3)CC2)n1
Q = CCN1CCCC(Cn2cc(COc3ccc4c(c3)CCC4)nn2)C1 (centres undefined)
Lookup: Return label of the item with the larger RP-LC retention time. Candidates: P , Q . Answer with the label corresponding to your selection.
Found: P
(P: 1060 s, Q: 679 s)

a = CC(=O)N1c2ccc(S(=O)(=O)N3CCOCC3)cc2CC1C(=O)N1CCN(c2ccccc2)CC1 (centres undefined)
b = CCOc1ccccc1-c1noc(-c2nnn3c2COC(c2ccc(C)cc2C)C3)n1 (centres undefined)
Lookup: I need your help: which of the pair a , b has higher RP-LC retention time? Bench note: the answer is the label of the chosen record.
Found: b
(b: 1290 s, a: 776 s)

---

test: gradient 5% acetonitrile 3 min, to 50% in 2 min, to 85% in 15 min, held 3 min, 100 µL/min; settings: column: Zorbax Extend-C18 2.1 x 50 mm; eluents: water / acetonitrile, 0.1% formic acid
observation.type: RP-LC retention time (s)

In the examples that follow, each entry is paired with its recorded RP-LC retention time.
[
  {
    "compound": "Cc1cccc(S(=O)(=O)NC2CCN(c3ccc(F)cc3)C2=O)c1 (stereo not given)",
    "reading.unit": "s",
    "RP-LC retention time": 928
  },
  {
    "compound": "COCC(=O)N1CCC(Oc2nccnc2N(C)C)C1 (stereo not given)",
    "reading.unit": "s",
    "RP-LC retention time": 598
  },
  {
    "compound": "CC(C)NC(=O)C1CCCN(c2nc3ncn(CC(=O)NCc4ccc(F)cc4)c(=O)c3s2)C1 (stereo not given)",
    "reading.unit": "s",
    "RP-LC retention time": 689
  },
  {
    "compound": "O=C(Nc1ccccc1)NC1CCCN(c2cc(-c3ccncc3)[nH]n2)C1 (stereo not given)",
    "reading.unit": "s",
    "RP-LC retention time": 602
  },
  {
    "compound": "CCOc1ccccc1N(C)C(=O)C1CCCN(c2ncnc3c2nc2n3CCCCC2)C1 (stereo not given)",
    "reading.unit": "s",
    "RP-LC retention time": 850
  }
]

P = CO[C@H]1CN(C(C)C)[C@H]1C1CCN(C(=O)C(C)C)CC1
Q = O=C(c1nnc(-c2ccc(S(=O)(=O)N3CCOCC3)cc2)o1)N1CCC(Cc2ccccc2)CC1
Lookup: Compare RP-LC retention time: is it lower for P or for Q ? Identify your pick by its label.
Found: P
(P: 557 s, Q: 1080 s)

P = O=C(CCC1CCCN(c2cc(NC3CC3)ncn2)C1)NCc1ccccn1 (stereo not given)
Q = Cc1noc(C)c1C1CCCN1C(=O)Cc1ccc(Cl)cc1 (stereo not given)
Lookup: For the pair P and Q , which member has the lower RP-LC retention time number? Please indicate the selected item by its label.
Found: P

a = COc1ccc(-c2cc3c(=O)n(Cc4nc(-c5ccccc5)oc4C)ccn3n2)cc1OC
b = Cc1cc(N2CCN(C(=O)c3cc4ccccc4o3)CC2)ncn1
Lookup: When the recorded RP-LC retention time values are compared, which is smaller: that of a or that of b ? When you have decided, please share the label of that item.
Found: b
(b: 559 s, a: 966 s)
